B1: library; numbered along this chain (parent)
chain: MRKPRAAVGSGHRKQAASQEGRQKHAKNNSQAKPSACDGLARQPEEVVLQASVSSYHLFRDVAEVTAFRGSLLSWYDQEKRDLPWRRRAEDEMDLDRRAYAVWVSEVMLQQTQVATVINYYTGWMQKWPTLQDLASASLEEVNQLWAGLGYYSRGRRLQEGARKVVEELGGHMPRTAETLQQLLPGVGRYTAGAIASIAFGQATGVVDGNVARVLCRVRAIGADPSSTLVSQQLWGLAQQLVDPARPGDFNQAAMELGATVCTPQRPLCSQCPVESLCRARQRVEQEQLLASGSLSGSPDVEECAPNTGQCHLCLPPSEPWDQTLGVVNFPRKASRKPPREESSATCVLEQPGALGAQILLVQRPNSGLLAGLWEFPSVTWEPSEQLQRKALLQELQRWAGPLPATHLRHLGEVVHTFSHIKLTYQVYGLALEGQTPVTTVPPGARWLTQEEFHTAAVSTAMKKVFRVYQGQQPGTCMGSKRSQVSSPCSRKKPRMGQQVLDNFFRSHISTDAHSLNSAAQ

Variants of: B1
protocol text: 8OG:A repair function score (normalized; synonymous = 0, nonsense = -1) (normalized log-likelihood score); higher = more repair activity (WT-like);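 note: cells sorted at 72 h after reporter transfection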
cond: with 8OG:A DNA repair reporter (GFP) in HEK-293 MUTYH KO cells
// reported 8OG:A repair function score for each item listed

>>> reported_measurement("M496L")
-0.0124
>>> reported_measurement("P129A")
-0.267

Exercise: Given the variant R495E , what is its reported 8OG:A repair function score?
Solution: 0.0282

Exercise: Next record, please: R219S
Solution: -0.772

Exercise: Now the variant A196I
Solution: -0.703

Exercise: And what about the variant A177Y ?
Solution: -0.194

Exercise: Same for R446T
Solution: -0.232

Exercise: Moving on to the next variant: F418W
Solution: -0.969

Exercise: Try the variant P352S
Solution: -0.0991

Exercise: Would you mind doing V414F as well?
Solution: -0.187

Exercise: Subsequent entry: Q239W
Solution: -0.74

Exercise: Also check E302N
Solution: -0.316

Exercise: Here is the next variant: A147I
Solution: -0.125
